molecular target: P. falciparum rPfAM1 (Plasmodium falciparum, UniProt O96935); construct: made in house; host or cells: Escherichia coli Rosetta 2 (DE3); assay: biochemical; format: biochemical
Sequence (O96935 whole entry): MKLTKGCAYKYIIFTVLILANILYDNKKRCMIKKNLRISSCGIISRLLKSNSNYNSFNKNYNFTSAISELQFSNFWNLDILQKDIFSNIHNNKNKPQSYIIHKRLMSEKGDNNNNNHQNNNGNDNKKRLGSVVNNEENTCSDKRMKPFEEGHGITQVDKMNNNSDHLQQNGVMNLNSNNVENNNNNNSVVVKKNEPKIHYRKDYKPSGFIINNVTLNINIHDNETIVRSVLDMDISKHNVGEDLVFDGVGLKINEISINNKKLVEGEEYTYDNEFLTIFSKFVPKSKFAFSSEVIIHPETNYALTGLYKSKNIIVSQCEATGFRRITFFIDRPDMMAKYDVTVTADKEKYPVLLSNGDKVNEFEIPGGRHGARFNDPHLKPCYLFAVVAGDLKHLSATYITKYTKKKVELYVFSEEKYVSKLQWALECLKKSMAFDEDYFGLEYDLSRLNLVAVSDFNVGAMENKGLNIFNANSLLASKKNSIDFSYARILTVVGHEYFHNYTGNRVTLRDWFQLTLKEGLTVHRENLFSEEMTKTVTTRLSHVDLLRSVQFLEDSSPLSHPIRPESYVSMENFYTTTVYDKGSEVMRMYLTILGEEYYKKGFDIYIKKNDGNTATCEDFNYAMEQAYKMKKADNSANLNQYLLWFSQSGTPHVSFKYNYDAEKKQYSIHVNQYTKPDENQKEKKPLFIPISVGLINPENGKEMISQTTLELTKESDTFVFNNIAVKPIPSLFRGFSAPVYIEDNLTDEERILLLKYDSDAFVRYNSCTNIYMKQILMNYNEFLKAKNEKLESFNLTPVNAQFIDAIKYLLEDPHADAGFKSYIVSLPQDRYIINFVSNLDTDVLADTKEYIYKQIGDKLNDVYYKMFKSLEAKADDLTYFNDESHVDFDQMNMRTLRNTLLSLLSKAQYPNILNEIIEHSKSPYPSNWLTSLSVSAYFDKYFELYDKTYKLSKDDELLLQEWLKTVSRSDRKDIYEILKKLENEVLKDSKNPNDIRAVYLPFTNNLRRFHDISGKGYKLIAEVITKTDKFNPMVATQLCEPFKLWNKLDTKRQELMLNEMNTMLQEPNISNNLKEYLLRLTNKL
OBSERVED PROPERTY: pKi
Scale: pKi equals -log10([C]), with [C] in mol/L.

[ask] Any idea what pKi came out for NC1CCc2c(cccc2-c2ccccc2)CC1=O (stereo not drawn) [21f] on P. falciparum rPfAM1 (Plasmodium falciparum, UniProt O96935)?
[reply] 5.70

[ask] Any idea what pKi came out for NC1CCc2c(Br)cccc2CC1=O (stereo not drawn) [21e] on P. falciparum rPfAM1 (Plasmodium falciparum, UniProt O96935)?
[reply] 6.00

[ask] Any idea what pKi came out for NC1CCc2c(Br)ccc(-c3ccccc3)c2CC1=O (stereo not drawn) [21i] on P. falciparum rPfAM1 (Plasmodium falciparum, UniProt O96935)?
[reply] 7.52

Recorded values, source paper PMC6222927.
